Values from patent US20250270315A1

TARGET SYSTEM: T1, full length human SIRPα v1 stably expressed on CHOK1 or 293F cells (human, UniProt P78324 31-504)
T1 construct: whole, on cells; also called CHOK1-human SIRPα v1; CHOK1-hSIRPα v1
T1 sequence (P78324 31-504): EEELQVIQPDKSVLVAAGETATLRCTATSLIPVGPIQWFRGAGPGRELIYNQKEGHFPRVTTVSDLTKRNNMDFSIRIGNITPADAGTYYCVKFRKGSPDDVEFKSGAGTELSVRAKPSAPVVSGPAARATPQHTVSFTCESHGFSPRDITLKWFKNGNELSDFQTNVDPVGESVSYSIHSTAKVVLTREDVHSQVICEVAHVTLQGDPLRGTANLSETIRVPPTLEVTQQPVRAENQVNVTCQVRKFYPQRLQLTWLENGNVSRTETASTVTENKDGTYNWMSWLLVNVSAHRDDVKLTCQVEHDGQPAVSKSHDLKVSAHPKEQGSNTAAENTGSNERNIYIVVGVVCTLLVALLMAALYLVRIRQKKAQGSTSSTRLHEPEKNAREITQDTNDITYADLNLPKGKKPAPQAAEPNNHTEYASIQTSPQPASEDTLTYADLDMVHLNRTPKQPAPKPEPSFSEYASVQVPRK
TEST METHOD NOTES: competitive FACS, mFc-CD47 ECD on CHOK1-human SIRPα v1 cells

BINDER	TOP blocking (%)
025c (antibody, V domains shown, also called chimeric antibody 025c; parental antibody of 025c) VH: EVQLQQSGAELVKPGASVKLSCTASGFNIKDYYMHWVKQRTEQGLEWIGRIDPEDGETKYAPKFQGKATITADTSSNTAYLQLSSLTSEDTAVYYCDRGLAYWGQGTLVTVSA VL: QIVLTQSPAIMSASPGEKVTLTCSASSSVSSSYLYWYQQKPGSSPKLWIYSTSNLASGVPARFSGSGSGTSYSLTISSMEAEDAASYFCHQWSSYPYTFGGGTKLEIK	97.6
